Listed here are compounds together with their documented viability, T/C.
# System: 926638-142-R-J1-PDC complex spheroid viability;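 further: spheroids exposed to drugs for one week before readout; percent viability relative to DMSO vehicle control wells set as 100%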
# EXPERIMENT: Anticancer human tumor 926638-142-R-J1-PDC patient-derived endometrial carcinoma cell line growth inhibition [POLQ]
# ASSAY_CONDITIONS: second compound 0.0316 µM; first compound 1 µM; hits give low values
Please give a number only; it is taken to be in %.

Nc1ccn(C2OC(CO)C(O)C2(F)F)c(=O)n1 (stereo not drawn) + COC1C(OC(N)=O)C(O)C(Oc2ccc3c(O)c(NC(=O)c4ccc(O)c(CC=C(C)C)c4)c(=O)oc3c2C)OC1(C)C :: 59.7

Task item: Give reported viability, T/C value for COc1cccc2c1C(=O)c1c(O)c3c(c(O)c1C2=O)CC(O)(C(=O)CO)CC3OC1CC(N)C(O)C(C)O1 (stereo not drawn) + Nc1ccc(C#CCN(C(=O)Cc2ncc(C(F)(F)F)cc2C(F)(F)F)c2ccc(F)cc2)nn1
Reply: 8.06

Task item: Give reported viability, T/C value for COc1cc2cc(C(=O)CCC(=O)O)sc2cc1OC + COC1C(OC(N)=O)C(O)C(Oc2ccc3c(O)c(NC(=O)c4ccc(O)c(CC=C(C)C)c4)c(=O)oc3c2C)OC1(C)C
Reply: 106
